test.protocol: yeast display, Sf9 membrane polyspecificity reagent, FACS + sequencing; frameworks hold sequencing errors
measurement.name: polyreactivity (PSR sort gate)

Find the recorded polyreactivity (PSR sort gate) belonging to "QVQLVESGGGLVQAGGSLRLSCAASGSIFKYYTMGWSRQAPGKERELVAAINSSGGSTYYADSVKGRFTISRYNAKNTVYLQMYSLKPEDTAVYYCIAVTSRRWRYELDYLGQGTQVTVSS" and report it. high polyreactivity

Now consider "QVQLVESGGGLVQAGGSLRLSCAASGRIFYVYAMGWYRQAPGKEREFVAAITRRSGSTYYADSVKGRFTISRDNAKNTVYFQMKSVKPEDTAVYSCNARLKYAIPQVPPYDYWGQGTQVTVSS" . high polyreactivity

----------
test.protocol: yeast display, Sf9 membrane polyspecificity reagent, FACS + sequencing; frameworks hold sequencing errors
measurement.name: polyreactivity (PSR sort gate)

Worked examples, 4 sequences total:
Entry under review: "QVQLVESGGGLVQAGGSLRLSCAASGSTFVYNAMGWYRQAPGKERELVAAITVIGGRTYYADSVKGRFTISRDNAKNTVYLQMNSLKPEDTAVYYCNADATESIGYYDEYEYWGQGTQVTVSS" . Reported polyreactivity (PSR sort gate)? low polyreactivity

Try this sequence too: "QVQLVESGGGLVQAGGSLRLSCSASGRTFGAYAMGWSRQAPGKERELVASISRSGGTTYYADSVKGRFTISRDNAKNTVYLQMNSLKPEDTAVYYCAAQYVRYGHYYWGQGTQVTVSS" high polyreactivity

Try this sequence too: "QVQLVESGGGLVQAGGSLRLSCAASGSIFLYYAMGWYRQAPGKERELVAAISYSGASTYYADSVKGRFTISRDNAKNTVYLQMNSLKPEDTAVYYCARDYGQYVGEGCYWGQGTQVTVSS" low polyreactivity

Query "QVQLVESGGGLVQAGGSLRLSCAASGSTFRGNAMGWYRQAPGNEREFVAAITVSGGSTYYADSVKGRFTSSRDNAKNTVYLQMISLKPEDTAVYYCAGLTRGRGYDSWGQGTQVTVSS" next high polyreactivity

Hello, I would appreciate it if you could give polyreactivity (PSR sort gate) for each entry below.
1. QVQLVESGGGLVQAGGSLSLSWAASGSTFFNNAMGWYRQAPGKERELVAGISYGCGRTYYADSVKGRFTISRDNAKNTVFLQMNSLKPEDTAVYYCNTVTSPAPYYSYDRYYWGQGTQVTVSS
2. QVQLVETGGGLVQARGSLRLSCAASGRIFRRYAMGWYRQAPGKERELVAAISSGGSTDYADSVKGRFTISRDNAKNTVYLQMNSLKPEDTAVYYCARRGPYYNVGLFDSWGQGTQVTVSS
3. QVQLVESGGGLVQAGASLRLSCAASGGILRQNTMGWYRQAPGKERELVAAISSSGGRTYYADSVKGRFTISRDNAKNTVYLQMNSLKPEDTAVYYCNVPAKRYPYYIRQSTVSPGNYWGQGTKVTVSS

1. high polyreactivity
2. low polyreactivity
3. high polyreactivity

Hi there! I need polyreactivity (PSR sort gate) for each item below, if you can.
1. QVQLVESGGGLVQAGGSIRLRCAASGGIFSVYAMGWYIQAPGKERELVASISLSGGSTSYADSVKGRFTISRDNAKNTVYLQMNSLKPEDTAVYYCNTDFGQAHTLSWYEDMDYWGQGTQVTVSS
2. QVQLVESGGGLVQAGGSHRLSCAASGSIFYPYPMGLYRQAPGKERELVAAITTRDDSTRYADSVKGRFTISRDNAKNTGYLQMNTLKPEDTAVYYCNTDYGPVFGQYYWYELDYWGQGTQVNVSS
3. QVQLVESGGGLVQAGGSLRLSCAASGRIVARNAMRWYSQAPGKERELVGAITYSGGSTYYADSVKGRFTISRDNAKNTVYLPMISLKPEDTAVYYCAAETSKRGRRYYYWGQGTQVTVSS
4. QVPIVESGGGLVQAGGSLRLSCAAYGIIFRLNAMGWNTQAPGKERELVAAITRRGGTTYYADSVKGRFTISRDNAKNTVYLQMNSLKPEDTAVYYCNTFYYWQYDWGQGTQVTESS

1: low polyreactivity; 2: low polyreactivity; 3: high polyreactivity; 4: high polyreactivity
